Taken from the supplement of paper PMC7125110.

The entries below are paired with their reported kcat.
B1: glmS ribozyme (parent)
chain: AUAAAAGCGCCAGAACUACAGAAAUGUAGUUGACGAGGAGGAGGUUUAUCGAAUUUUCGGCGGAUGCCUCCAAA

# Variants of: B1
# assay: kcat; higher = faster cleavage; RNA array
# condition: with glucosamine-6-phosphate
This sample holds only a part of the variants without activity.

Worked examples, 2 variants total:
sequence_change: A12C G37U
kcat: < 1e-05 s⁻¹
//
sequence_change: G38U G51A
kcat: < 1e-05 s⁻¹

Prompt line: Data request, read-out kcat, for A12C C61A
Response line: < 1e-05 s⁻¹
